System Under Test: OATP1A2 (Homo sapiens)
Construct: expressed in transfected cells; host or cells: HEK293 (lentiviral transduction; cDNA synthesised by GenScript)
Sequence (P46721 whole entry): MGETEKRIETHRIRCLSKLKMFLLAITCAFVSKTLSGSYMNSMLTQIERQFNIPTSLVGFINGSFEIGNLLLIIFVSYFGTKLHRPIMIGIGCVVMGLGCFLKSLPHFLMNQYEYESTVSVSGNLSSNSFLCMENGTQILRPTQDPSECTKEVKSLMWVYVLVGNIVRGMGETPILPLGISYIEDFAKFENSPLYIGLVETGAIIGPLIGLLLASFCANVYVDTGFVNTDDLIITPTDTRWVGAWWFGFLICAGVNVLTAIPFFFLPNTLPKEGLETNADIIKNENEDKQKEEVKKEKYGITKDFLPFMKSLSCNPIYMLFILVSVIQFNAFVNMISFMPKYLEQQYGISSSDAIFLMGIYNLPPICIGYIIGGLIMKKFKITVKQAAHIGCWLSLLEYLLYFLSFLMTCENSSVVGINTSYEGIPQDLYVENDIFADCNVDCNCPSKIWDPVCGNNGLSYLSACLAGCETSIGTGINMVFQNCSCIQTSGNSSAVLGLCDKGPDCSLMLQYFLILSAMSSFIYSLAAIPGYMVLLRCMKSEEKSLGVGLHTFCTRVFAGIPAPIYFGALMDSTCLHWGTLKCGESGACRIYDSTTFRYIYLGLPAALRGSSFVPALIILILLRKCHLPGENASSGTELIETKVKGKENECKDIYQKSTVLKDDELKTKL
Assay Explanation: Uptake inhibition assay, OATP1A2-overexpressing HEK293 cells
Format: cell-based
Experimental Conditions: oxindole alkaloids; substrate E3S; read-out: IC50 (95% CI of IC50)
Test Readout: IC50 (µM)
Kindly provide the numeric value in µM only, without the unit symbol.

Param readout= IC50; system= OATP1A2 (Homo sapiens); entry= `COC(=O)C1=CO[C@@H](C)[C@@H]2CN3CC[C@@]4(C(=O)Nc5ccccc54)[C@@H]3C[C@H]12` ; returns value.
36.1

The reported measurements were obtained from paper PMC11597817.
